Every entry's value here was drawn from PubChem BioAssay AID2060497.

system: 317291-083-R-J1-PDC complex spheroids, viability; test: Anticancer human tumor 317291-083-R-J1-PDC patient-derived soft tissue sarcoma cell line growth inhibition [GQUAD]; details: second compound 10 µM; first compound 0.316 µM; active means viability on the fitted dose curve at most 10% of control; inactive means the rest;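 further: spheroids exposed to compounds for one week before readout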
Select the correct class. Options are TRUE for active, FALSE for inactive and nothing else.

Molecule	Assigned Category
O=C(c1cc(Cc2n[nH]c(=O)c3ccccc23)ccc1F)N1CCN(C(=O)C2CC2)CC1 + Cc1cnc(CNC(=O)c2c(=O)c3ccc(N4CCCN(C)CC4)nc3n3c2sc2ccccc23)cn1	FALSE

**Query** Recorded test call requested for COc1cc(C2c3cc4c(cc3C(OC3OC5COC(C)OC5C(O)C3O)C3COC(=O)C23)OCO4)cc(OC)c1O (stereo not given) + Cc1[nH]c2ccc(F)cc2c1-c1nc2c3cccnc3c3ncccc3c2[nH]1
**Result** FALSE

**Query** Recorded test call requested for Nc1ccn(C2OC(CO)C(O)C2(F)F)c(=O)n1 (stereo not given) + Cc1cnc(CNC(=O)c2c(=O)c3ccc(N4CCCN(C)CC4)nc3n3c2sc2ccccc23)cn1
**Result** FALSE

**Query** Recorded test call requested for C=CC(=O)N1CCN(c2nc(=O)n(-c3c(C)ccnc3C(C)C)c3nc(-c4c(O)cccc4F)c(F)cc23)C(C)C1 (stereo not given) + CN(C)c1ccc(Nc2c3ccc(NC(=O)CCN4CCCC4)cc3nc3cc(NC(=O)CCN4CCCC4)ccc23)cc1
**Result** FALSE

**Query** Recorded test call requested for Cc1[nH]c2ccccc2c1CCNCc1ccc(/C=C/C(=O)NO)cc1 + Cc1[nH]c2ccc(F)cc2c1-c1nc2c3cccnc3c3ncccc3c2[nH]1
**Result** TRUE
